- System Tested: T1, human Claudin18.2 (CLDN18.2) (human, UniProt P56856 1-261)
- T1 construct: the cell line is named under assay; also called human Claudine18.2; hClaudin18.2
- Assay Info: FACS on CHOK1-18.2 cells;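 also: antibody binding to the cells detected with a fluorescently labelled secondary antibody and read out as median fluorescence intensity by flow cytometry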
# Lookup of reported FACS MFI keyed by entry
Just the number.

{"Binder": "Ab37 (antibody, V domains shown, mouse monoclonal (hybridoma)) VH: EVKLEESGGGLVQPGGSMKLSCVASGFTFSNYWMNWVRQYPEQGLEWVAQIRLNSDNYATHYAESVKGRFTISRDDSRSTVYLQMNNLRAEDTGIYYCTGGGEYWGQGTTLTVSS VL: DIVMTQSQKFMSTTIGDRVSITCKASQNVDTAVAWYQQKPGQSPKLLIYSASTRYTGVPDRFTGSGSGTDFTLTISNMQSEDLADYFCQQYISYQLTFGAGTKLELK", "Assay Readout": "FACS MFI", "Data Value": 15200}
{"Binder": "Ab14 (antibody, V domains shown, mouse monoclonal (hybridoma)) VH: QVQLQQPGAELVKPGASVKLSCKASGYTFTSYLLHWVKQRPGQGLEWIGMIHPNGGSTNYNEKFKTKATLTVDKSSSTAYMQLSSLTSEDSAVYYCAPVYFGNSFAYWGQGTLVTVSA VL: DIVMTQSPSSLTVTAGEKVTMSCKSSQSLLNSGNQKNYLTWYQQKPGQPPKLLIYWASTRESGVPDRFTGSGSGTDFTLTISSVQAEDLAVYYCQNDYYYPFTFGSGTKLEKK", "Assay Readout": "FACS MFI", "Data Value": 21400}
{"Binder": "Ab36 (antibody, V domains shown, mouse monoclonal (hybridoma)) VH: EVKLEESGGGLVQPGGSMKLSCVASGFTFSNYWMNWVRQSPEKGLEWVAQIRLKSDNYATHYAESVKGMFTISRDDSKSSVYLQMNNLRAEDTGIYYCTAGGDYWGQGTTLTVSS VL: DIVMTQSQKFMSTTVGDRVSITCKASQNVGTAVAWYHQKPGQSPKLLIYSASNRYTGVPDRFIGSGSGTDFTLTISNVQSEDLGNYFCQQYINYLLTFGSGTKLEIK", "Assay Readout": "FACS MFI", "Data Value": 18000}

Quick one: FACS MFI for Ab24 (antibody, V domains shown, mouse monoclonal (hybridoma)) VH: EVKLVESGGGLVKPGGSLKLSCAGSGFTFSSYTMSWVRQTPEKRLEWVATITIGVNIYYLDSVKGRFTISRDNAKNTLYLQMNSLRSEDTALYYCTRLGQTQRNAMDYWGQGTSVTVSS VL: DIVMTQSPTSLSVSAGEKVTMTCKSSQSLFNSGNQKNYLAWYQEKPGQPPKLLIYGASTRESGVPDRFTGSGSGTDFTLTISSVQAEDLAVYYCQNVHFYPFTFGAGTKLEL ?
10100

Where do the numbers come from? From patent US20230095569A1.
